biological target: Transcriptional regulator MvfR (Pseudomonas aeruginosa PA14) (UniProt A0A072ZLE6); test: Agonist activity at Pseudomonas aeruginosa PqsR expressed in Escherichia coli DH5alpha at 0.1 to 10 uM incubated for 1.5 hrs by luminescence reporter gene assay
Sequence (A0A072ZLE6 as listed by the source): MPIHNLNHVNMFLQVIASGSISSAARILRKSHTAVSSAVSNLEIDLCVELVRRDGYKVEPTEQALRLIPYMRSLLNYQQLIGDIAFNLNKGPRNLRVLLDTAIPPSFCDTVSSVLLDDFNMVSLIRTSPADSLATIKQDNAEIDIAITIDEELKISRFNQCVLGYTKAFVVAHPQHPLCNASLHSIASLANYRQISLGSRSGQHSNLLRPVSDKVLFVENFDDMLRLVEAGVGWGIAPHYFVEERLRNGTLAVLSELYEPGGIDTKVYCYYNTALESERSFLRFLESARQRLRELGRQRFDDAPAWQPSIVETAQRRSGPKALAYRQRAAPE
The source made the active and inactive calls. The rule behind the calls is not given here.
observedProperty: Activity

Incoming: Looking for the measured Activity of CCCC(O)CC(=O)CCc1ccc(O)c(OC)c1 (centres undefined) , can you help?
Outgoing: inactive

Incoming: Looking for the measured Activity of `CCCC(=O)NC1CCCC1` , can you help?
Outgoing: inactive

Incoming: Looking for the measured Activity of `CCCC(=O)C#Cc1ccc(F)c(F)c1` , can you help?
Outgoing: inactive

Incoming: Looking for the measured Activity of `CCCCC[C@H](O)CC(=O)CCc1ccc(O)c(OC)c1` , can you help?
Outgoing: inactive

---

test system: Pseudomonas aeruginosa; assay: Antibacterial activity against Pseudomonas aeruginosa assessed as bacterial growth at 10 uM incubated for 24 hrs relative to control; type: functional
observedProperty: Activity (%)
Enter your answer as a number in %; do not include the unit.

Incoming: Looking for the measured Activity of CCCC(O)C#Cc1ccc(F)c(F)c1 (racemic) , can you help?
Outgoing: 100

Further cases:
Incoming: Looking for the measured Activity of CCCC(O)CC(=O)/C=C/c1ccc(O)c(OC)c1 (stereo not drawn) , can you help?
Outgoing: 102

Incoming: Looking for the measured Activity of CCCC(O)CC(=O)/C=C/c1ccc(F)c(F)c1 (stereo not drawn) , can you help?
Outgoing: 101

Incoming: Looking for the measured Activity of `CCCCCC(=O)/C=C/c1ccc(F)c(F)c1` , can you help?
Outgoing: 103

Incoming: Looking for the measured Activity of `CCC[C@@H](O)C#Cc1ccc(F)c(F)c1` , can you help?
Outgoing: 98

Incoming: Looking for the measured Activity of CCCCC[C@H](O)CC(=O)CCc1ccc(O)c(OC)c1 [GINGEROL] , can you help?
Outgoing: 96

---

Molecular target: HTH-type quorum-sensing regulator RhlR (Pseudomonas aeruginosa (strain ATCC 15692 / PAO1 / 1C / PRS 101 / LMG12228))
Sequence (whole entry): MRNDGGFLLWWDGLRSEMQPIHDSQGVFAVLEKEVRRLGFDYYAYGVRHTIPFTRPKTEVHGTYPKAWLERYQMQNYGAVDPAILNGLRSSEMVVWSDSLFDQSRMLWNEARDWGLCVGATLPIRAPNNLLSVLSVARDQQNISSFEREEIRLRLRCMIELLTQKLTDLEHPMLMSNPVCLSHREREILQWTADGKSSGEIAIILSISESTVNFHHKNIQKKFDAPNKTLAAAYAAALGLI
Experiment: Antagonist activity at Pseudomonas aeruginosa RhlR expressed in Escherichia coli DH5alpha assessed as relative protein activity at 100 uM incubated for 1.5 hrs in presence of N-butyryl-L-homoserine lactone by luminescence reporter gene assay relative to control
Parameters: scale not given: the % may be the effect or the level left
observedProperty: Activity (%)

Completed entries (count: 3):
Incoming: Looking for the measured Activity of CCCC(O)CC(=O)/C=C/c1ccc(O)c(O)c1 (stereo not drawn) , can you help?
Outgoing: 43

Incoming: Looking for the measured Activity of CCCCCC(O)C#Cc1ccc(O)c(OC)c1 (racemic) , can you help?
Outgoing: 32

Incoming: Looking for the measured Activity of CCCC(O)CC(=O)/C=C/c1cc(F)cc(OC)c1 (stereo not drawn) , can you help?
Outgoing: 74

a: CCCC(O)CC(=O)/C=C/c1cccc(OC)c1 (stereo not drawn)
b: CCCC(O)CC(=O)CCc1ccc(O)c(O)c1 (stereo not drawn)
Incoming: Quick check, higher Activity between a and b ? Mark your answer with the label of the selected entry.
Outgoing: a
(a: 94%, b: 47%)

P: CCCC(O)CC(=O)CCc1cc(F)cc(OC)c1 (stereo not drawn)
Q: CCCCCC(O)CCc1ccc(O)c(OC)c1 (stereo not drawn)
Incoming: Quick check, higher Activity between P and Q ? Mark your answer with the label of the selected entry.
Outgoing: P
(P: 85%, Q: 45%)

1: CCCCC[C@@H](O)C#Cc1ccc(F)c(F)c1
2: CCCCCC(=O)C#Cc1ccc(F)c(F)c1
Incoming: Quick check, higher Activity between 1 and 2 ? Mark your answer with the label of the selected entry.
Outgoing: 1
